- Tested on: DU145 cells
- assay-protocol: CCK-8 in vitro cytotoxicity assay, DU145
- Assay type: cell-based
- experimental-context: DU-145; human prostate cancer cell line DU145, CCK-8, 24 h exposure, mean ± SD of three experiments
The reader will find reported IC50 values listed item by item below.

Please report IC50 with DU145 cells for item Fc1ccc(N2CCN(CCc3ccc(COc4ccc5c(c4)OCO5)cc3)CC2)cc1 .
> 50 µM

* * *

- Tested on: DU145 cells
- assay-protocol: CCK-8 in vitro cytotoxicity assay, DU145
- Type: cell-based
- experimental-context: DU-145; human prostate cancer cell line DU145, CCK-8, 24 h exposure, mean ± SD of three experiments
value-type: IC50

Use the examples below as a reference point.
- chemical-string: "Fc1ccccc1N1CCN(CCc2ccc(COc3ccc4c(c3)OCO4)cc2)CC1"
  system-under-test: "DU145 cells"
  IC50: "> 50 µM"
- chemical-string: "COc1ccccc1N1CCN(CCc2ccc(COc3ccc4c(c3)OCO4)cc2)CC1"
  system-under-test: "DU145 cells"
  IC50: "> 50 µM"

Please report IC50 with DU145 cells for item Brc1ccc(N2CCN(CCc3ccc(COc4ccc5c(c4)OCO5)cc3)CC2)cc1 .
> 50 µM

Data provenance is paper PMC6271825.
